Provenance of the data: patent US5703070A

assay: in vivo; settings: rat, sc
Form field: ED50 at 0.5 h (one value per entry).
QUANTITY_MEASURED: ED50 at 0.5 h

> print(dat)
                                    molecule  quantity.measured  endpoint.value
 1  COc1ccc2[nH]cc(CCCN3CCC(Cc4noc5cc(F)ccc45)C3)c2c1.Cl (stereo not shown)      ED50 at 0.5 h      > 40 mg/kg
 2  COc1ccc2[nH]cc(CCCN3CCC(CC(=O)c4ccc(F)cc4)C3)c2c1.Cl (stereo not shown) [Ex. 4]      ED50 at 0.5 h      > 40 mg/kg
 3  O=C(CCCN1CCC(O)(c2ccc(Cl)cc2)CC1)c1ccc(F)cc1      ED50 at 0.5 h      0.14 mg/kg
 4  Cl.O=C(CC1CCN(CCCc2c[nH]c3ccc(F)cc23)C1)c1ccc(F)cc1 (stereo not shown)      ED50 at 0.5 h      > 40 mg/kg
 5  COc1ccc2[nH]cc(CCN3CCC(CC(=O)c4ccc(F)cc4)C3)c2c1.Cl (stereo not shown)      ED50 at 0.5 h      > 40 mg/kg
 6  COc1ccc2c(c1)c(CCN1CCC(CC(=O)c3ccc(F)cc3)C1)cn2C.Cl (stereo not shown)      ED50 at 0.5 h      > 40 mg/kg
 7  COc1ccc2[nH]cc(CCCN3CCCC(C(=O)c4ccc(F)cc4)CC3)c2c1.Cl (stereo not shown)      ED50 at 0.5 h      > 40 mg/kg
 8  COc1ccc2[nH]cc(CCCN3CCC(C(=O)c4ccc(F)cc4)CC3)c2c1.Cl [Ref. A, reference compound]      ED50 at 0.5 h       1.4 mg/kg
 9  COc1ccc2[nH]cc(CCCN3CCC(CC(=O)c4ccc(F)cc4)C3)c2c1.Cl (racemic) [Ex. 3]      ED50 at 0.5 h      > 40 mg/kg
10     CN1CCN(C2=Nc3cc(Cl)ccc3Nc3ccccc32)CC1      ED50 at 0.5 h      > 40 mg/kg
